Test: inhibitors of hydroxyurea-induced Chk1 phosphorylation, primary screen, imaging, HeLa, phospho-Chk1 antibody, percent positive cells (AID 1186)
Details: hydroxyurea-induced phospho-Chk1 immunofluorescence imaging, higher = more signal
Assign 1.0 whenever z-score does not fall below 0.02; assign 0.0 whenever it does.

COCCOC(=O)N1C(=O)[C@@]2(c3cc(C#CCCO)ccc31)[C@H](c1ccccc1OCCO)N1[C@H](c3ccccc3)[C@H](c3ccccc3)OC(=O)[C@H]1[C@@H]2C(=O)N1CCc2cc(OC)c(OC)cc2C1 : 0.0
C=CCC(OC(C)=O)[C@@H]1[C@@H](N(Cc2ccc(-c3ccccc3)cc2)C(=O)c2ccc(-c3ccccc3)cc2)c2cc(OCCCO)ccc2N1C(=O)c1ccc2ccccc2n1 (some centres undefined) : 1.0
CN(C)CCCNC(=O)[C@@H]1c2ccccc2C(=O)N(C2Cc3ccccc3C2)[C@H]1c1ccc(CO)cc1 : 0.0
CN(C)CCCC[C@@H]1NC(=O)[C@H]2C[C@@H](C(=O)NCc3ccc(F)cc3)[C@@H](c3ccc(O)cc3)N2C1=O : 1.0
COCCOC(=O)N1C(=O)[C@@]2(c3ccccc31)[C@H](c1ccc(OCCO)cc1)N1[C@H](c3ccccc3)[C@H](c3ccccc3)OC(=O)[C@H]1[C@@H]2C(=O)N1CCN(c2ncccn2)CC1 : 1.0
NCCCC[C@@H]1NC(=O)[C@H]2C[C@@H](C(=O)O)[C@@H](c3cccc(OCCO)c3)N2C1=O : 1.0
COCCOC(=O)N1C(=O)[C@@]2(c3ccccc31)[C@H](C(N)=O)[C@H]1C(=O)O[C@H](c3ccccc3)[C@H](c3ccccc3)N1[C@@H]2c1ccc(OCCO)cc1 : 1.0
COC(=O)Cn1c(C(=O)N(C)C)cc2c1C[C@H]1CN(C(=O)c3ccccc3)[C@@](Cc3ccc(OC)cc3)(C(=O)OC)[C@@H]21 : 0.0
CCCCC=C[C@@H](NC(=O)c1ccc(C(F)(F)F)cc1)c1ccccc1 : 0.0
C=C(COC)/C(=C/C[C@H](OC(=O)c1ccncc1)c1cccc(OCCO)c1)c1cnc2ccccc2c1 : 1.0
CCOC(=O)C1=C[C@@H](C(C)(C)C)N(S(=O)(=O)c2ccc(C)cc2)[C@H]1c1ccccc1Cl : 1.0
CC(C)=CCN(C(=O)C#Cc1ccccc1)[C@H](CO)c1ccccc1 : 0.0
COc1ccc(NN2C(C(O)c3cc(C(F)(F)F)cc(C(F)(F)F)c3)C=CC3C(=O)N(C4CCCCC4)C(=O)C32)cc1 (centres undefined) : 0.0
COCCOC(=O)N1C(=O)[C@@]2(c3cc(C#CCCO)ccc31)[C@H](C(=O)N1CCc3cc(OC)c(OC)cc3C1)[C@H]1C(=O)O[C@H](c3ccccc3)[C@H](c3ccccc3)N1[C@@H]2c1ccccc1OCCO : 1.0
C[N+](C)(C)CCCCCCNC(=O)[C@H]1C[C@H]2C(=O)NCC(=O)N2[C@H]1c1cccc(OCCO)c1 : 1.0
COC(=O)C1=CC(CCCO)=CC(C2CC2)N(Cc2cccc(OC(F)(F)F)c2)C=C1C(=O)OC (centres undefined) : 0.0
C=C(C(=O)CC[C@@H](OC(C)=O)c1cccc(OCCO)c1)C(C)C : 0.0
[N-]=[N+]=NCc1ccccc1C[C@@]1(C(=O)O)N=C(c2ccc(OCCCO)cc2)O[C@@H]1c1ccccc1CN=[N+]=[N-] : 0.0
